Data credit: patent US20260258033A1

Entries and their measured Ki follow.
Target: Full-length human recombinant N-term FLAG-tagged MASTL protein (Homo sapiens)
Test: MASTL enzyme kinase assay (CHEF PhosphoSens)
Details: MASTL Ki (nM), 3 nM MASTL, 1 mM ATP, room temperature; geometric mean of at least 3 independent determinations (* denotes n = 2)
propertyLabel: Ki (nM)

- compound: "CNC1(c2ccnc(Nc3cc4cc(-c5cnnn5C)nc(N)c4cn3)c2)CCC1 [Example 24]"
  measuredOn: "Full-length human recombinant N-term FLAG-tagged MASTL protein (Homo sapiens)"
  propertyLabel: "Ki"
  resultUnits: "nM"
  assayValue: 0.089
- compound: "CCn1nncc1-c1cc2cc(Nc3cc(C(C)(C)NC)ccn3)ncc2c(N)n1 [Example 37]"
  measuredOn: "Full-length human recombinant N-term FLAG-tagged MASTL protein (Homo sapiens)"
  propertyLabel: "Ki"
  resultUnits: "nM"
  assayValue: 0.059
- compound: "Cn1nncc1-c1cc2cc(Nc3cc(C(N)CC(F)(F)F)ccn3)ncc2c(N)n1 (single isomer, unassigned) [Example 18]"
  measuredOn: "Full-length human recombinant N-term FLAG-tagged MASTL protein (Homo sapiens)"
  propertyLabel: "Ki"
  resultUnits: "nM"
  assayValue: 0.088
- compound: "CNC(C)(COC)c1ccnc(Nc2cc3cc(-c4cnnn4C)nc(N)c3cn2)c1 (single isomer, unassigned) [Example 33]"
  measuredOn: "Full-length human recombinant N-term FLAG-tagged MASTL protein (Homo sapiens)"
  propertyLabel: "Ki"
  resultUnits: "nM"
  assayValue: 0.25
- compound: "CCC(N)c1cc(Nc2cc3cc(-c4cnnn4C)nc(N)c3cn2)ncc1C (single isomer, unassigned) [Example 14]"
  measuredOn: "Full-length human recombinant N-term FLAG-tagged MASTL protein (Homo sapiens)"
  propertyLabel: "Ki"
  resultUnits: "nM"
  assayValue: 0.098

* * *

Entries and their Ki values follow.
Target: Full-length human recombinant N-term FLAG-tagged MASTL protein (Homo sapiens)
Sequence (Q96GX5 1-879): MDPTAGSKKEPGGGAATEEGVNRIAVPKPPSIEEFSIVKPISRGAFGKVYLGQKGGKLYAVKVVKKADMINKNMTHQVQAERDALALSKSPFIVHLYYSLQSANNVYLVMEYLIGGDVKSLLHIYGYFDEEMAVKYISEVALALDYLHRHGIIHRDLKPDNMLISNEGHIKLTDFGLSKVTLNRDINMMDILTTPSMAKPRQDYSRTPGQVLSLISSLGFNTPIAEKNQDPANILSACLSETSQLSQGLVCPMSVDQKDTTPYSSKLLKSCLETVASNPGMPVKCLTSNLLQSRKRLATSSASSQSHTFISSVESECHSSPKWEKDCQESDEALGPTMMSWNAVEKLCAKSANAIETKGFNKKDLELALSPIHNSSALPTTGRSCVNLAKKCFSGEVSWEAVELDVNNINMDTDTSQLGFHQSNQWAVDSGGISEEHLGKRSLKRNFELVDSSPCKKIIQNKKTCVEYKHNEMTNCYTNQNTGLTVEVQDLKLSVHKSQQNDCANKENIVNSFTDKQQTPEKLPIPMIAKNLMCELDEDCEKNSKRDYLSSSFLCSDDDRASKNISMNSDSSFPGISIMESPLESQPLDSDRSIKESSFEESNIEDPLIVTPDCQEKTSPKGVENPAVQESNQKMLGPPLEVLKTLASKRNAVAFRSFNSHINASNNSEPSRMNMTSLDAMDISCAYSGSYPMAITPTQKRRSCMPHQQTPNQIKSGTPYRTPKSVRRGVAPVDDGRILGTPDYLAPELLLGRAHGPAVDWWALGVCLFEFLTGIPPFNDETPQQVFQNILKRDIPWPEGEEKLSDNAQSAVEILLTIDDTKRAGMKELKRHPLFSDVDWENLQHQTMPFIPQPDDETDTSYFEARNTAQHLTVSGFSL
Experiment: MASTL enzyme kinase assay (CHEF PhosphoSens)
Conditions: MASTL Ki (nM), 3 nM MASTL, 1 mM ATP, room temperature; geometric mean of at least 3 independent determinations (* denotes n = 2)
propertyLabel: Ki (nM)

- compound: "CNC(C)(c1ccnc(Nc2cc3cc(-c4cnnn4C)nc(N)c3cn2)c1)C1CC1 (single isomer, unassigned) [Example 20]"
  assayValue: 0.049
- compound: "CCC(N)c1cc(Nc2cc3cc(-c4cnnn4C)nc(N)c3cn2)ncc1C (single isomer, unassigned) [Example 13]"
  assayValue: 0.065
- compound: "CCn1nncc1-c1cc2cc(Nc3cc(C4(N)CCCC4)ccn3)ncc2c(N)n1"
  assayValue: 0.019
- compound: "CCC1(NC)CCc2c1ccnc2Nc1cc2cc(-c3cnnn3C)nc(N)c2cn1 (single isomer, unassigned) [Example 4]"
  assayValue: 0.47
